The following molecules are listed with their measured viability, T/C values.
# System: 454973-116-R2-J3-PDC spheroids, viability, % test/control;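 further: spheroids exposed to compounds for seven days; 100% = DMSO vehicle control viability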
# experiment_description: Anticancer human tumor 454973-116-R2-J3-PDC patient-derived pancreatic carcinoma cell line growth inhibition [GQUAD]
# cond: second compound 1 µM; first compound 1 µM; hits give low values; spheroids with HUVEC and MSC

Please review the following examples before continuing.
CC(C)(O)C1CCC(Nc2ccc3ncc(-c4cccc(C(F)(F)F)c4)n3n2)CC1 (stereo unspecified) + CN(C)c1ccc(Nc2c3ccc(NC(=O)CCN4CCCC4)cc3nc3cc(NC(=O)CCN4CCCC4)ccc23)cc1 | 55.8%
CC(C)n1c(=O)n(C)c2cnc3cc(F)c(-c4ccc(OCCCN5CCCCC5)nc4)cc3c21 + Cc1cnc(CNC(=O)c2c(=O)c3ccc(N4CCCN(C)CC4)nc3n3c2sc2ccccc23)cn1 | 48.7%
CC1COCCN1c1cc(C2(S(C)(=N)=O)CC2)nc(-c2ccnc3[nH]ccc23)n1 (stereo unspecified) + Cc1[nH]c2ccc(F)cc2c1-c1nc2c3cccnc3c3ncccc3c2[nH]1 | 108%
C=CCn1c(=O)c2cnc(Nc3ccc(N4CCN(C)CC4)cc3)nc2n1-c1cccc(C(C)(C)O)n1 + Cc1cnc(CNC(=O)c2c(=O)c3ccc(N4CCCN(C)CC4)nc3n3c2sc2ccccc23)cn1 | 22.4%
O=C(c1cc(Cc2n[nH]c(=O)c3ccccc23)ccc1F)N1CCN(C(=O)C2CC2)CC1 + CN(C)c1ccc(Nc2c3ccc(NC(=O)CCN4CCCC4)cc3nc3cc(NC(=O)CCN4CCCC4)ccc23)cc1 | 74.5%
Nc1ccn(C2OC(CO)C(O)C2(F)F)c(=O)n1 (stereo unspecified) + Cc1[nH]c2ccc(F)cc2c1-c1nc2c3cccnc3c3ncccc3c2[nH]1 | 20.1%

Quick one: viability, T/C for CC1COCCN1c1cc(C2(O)CC3CCC(C2)O3)c2cnn(-c3ccn[nH]3)c2n1 (stereo unspecified) + Cc1[nH]c2ccc(F)cc2c1-c1nc2c3cccnc3c3ncccc3c2[nH]1 ? 19.9%

Let us now turn to O=C(NO)c1cnc(N2CCN(S(=O)(=O)c3ccc4ccccc4c3)CC2)nc1 + CN(C)c1ccc(Nc2c3ccc(NC(=O)CCN4CCCC4)cc3nc3cc(NC(=O)CCN4CCCC4)ccc23)cc1 3.47%

Let us now turn to CC(C)(O)C1CCC(Nc2ccc3ncc(-c4cccc(C(F)(F)F)c4)n3n2)CC1 (stereo unspecified) + Cc1[nH]c2ccc(F)cc2c1-c1nc2c3cccnc3c3ncccc3c2[nH]1 67.1%

Let us now turn to CC1COCCN1c1cc(-c2ccnn2C)c2ccnc(-c3ccn[nH]3)c2n1 (stereo unspecified) + Cc1[nH]c2ccc(F)cc2c1-c1nc2c3cccnc3c3ncccc3c2[nH]1 18.7%

Let us now turn to COc1cccc2c1C(=O)c1c(O)c3c(c(O)c1C2=O)CC(O)(C(=O)CO)CC3OC1CC(N)C(O)C(C)O1 (stereo unspecified) + Cc1cnc(CNC(=O)c2c(=O)c3ccc(N4CCCN(C)CC4)nc3n3c2sc2ccccc23)cn1 46.2%
